biological target: canine TRPM8 (Canis lupus familiaris, UniProt Q1A7N1); construct: expressed in transfected cells; test: In vitro canine TRPM8 functional assay (Ca2+-sensitive dye, FLIPR/FDSS, icilin activation); type: cell-based; details: 0.5 μM compound; HEK293 cells expressing canine TRPM8, icilin activation
Sequence (Q1A7N1 1-1104): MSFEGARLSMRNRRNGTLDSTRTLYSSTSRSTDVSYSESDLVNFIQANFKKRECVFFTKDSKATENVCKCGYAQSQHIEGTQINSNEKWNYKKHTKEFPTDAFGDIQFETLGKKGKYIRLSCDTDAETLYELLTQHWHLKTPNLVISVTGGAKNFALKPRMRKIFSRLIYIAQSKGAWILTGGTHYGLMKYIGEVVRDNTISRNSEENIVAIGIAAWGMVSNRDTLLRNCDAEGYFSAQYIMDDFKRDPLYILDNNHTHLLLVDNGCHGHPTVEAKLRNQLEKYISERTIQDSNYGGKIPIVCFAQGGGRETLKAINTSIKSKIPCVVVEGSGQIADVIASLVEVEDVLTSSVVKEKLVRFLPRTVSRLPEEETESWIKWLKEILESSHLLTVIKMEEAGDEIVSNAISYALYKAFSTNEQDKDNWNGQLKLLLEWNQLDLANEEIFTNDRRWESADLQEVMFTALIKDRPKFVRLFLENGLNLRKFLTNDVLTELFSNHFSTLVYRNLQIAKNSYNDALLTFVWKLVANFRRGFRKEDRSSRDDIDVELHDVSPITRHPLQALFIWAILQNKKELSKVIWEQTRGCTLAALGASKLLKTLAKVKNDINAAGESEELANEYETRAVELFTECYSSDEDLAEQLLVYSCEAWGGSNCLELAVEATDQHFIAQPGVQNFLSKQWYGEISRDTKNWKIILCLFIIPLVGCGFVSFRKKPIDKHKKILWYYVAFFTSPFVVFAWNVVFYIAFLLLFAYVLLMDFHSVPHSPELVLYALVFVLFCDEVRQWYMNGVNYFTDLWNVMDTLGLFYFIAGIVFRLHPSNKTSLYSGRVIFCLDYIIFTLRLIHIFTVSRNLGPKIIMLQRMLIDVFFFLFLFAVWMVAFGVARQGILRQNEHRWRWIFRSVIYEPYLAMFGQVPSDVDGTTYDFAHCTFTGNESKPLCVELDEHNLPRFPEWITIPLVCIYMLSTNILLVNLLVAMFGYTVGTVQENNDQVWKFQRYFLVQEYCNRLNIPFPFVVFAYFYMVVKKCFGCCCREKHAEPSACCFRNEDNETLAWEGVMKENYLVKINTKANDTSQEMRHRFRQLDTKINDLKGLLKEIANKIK
property-name: % I (0.5 μM)

[[record]]
molecule = "CCOP(=O)(OCC)C(Cc1ccc(Cl)cc1)c1sc2ccccc2c1Br (stereo not drawn)"
assayed_system = "canine TRPM8 (Canis lupus familiaris, UniProt Q1A7N1)"
property_name = "% I (0.5 μM)"
result = "101%"

[[record]]
molecule = "CC(C)OP(=O)(OC(C)C)C(Cc1cccc(C(F)(F)F)c1F)c1sc2ccccc2c1Cl (racemic)"
assayed_system = "canine TRPM8 (Canis lupus familiaris, UniProt Q1A7N1)"
property_name = "% I (0.5 μM)"
result = "104%"

[[record]]
molecule = "CCOP(=O)(OCC)C(Cc1cccc(Cl)c1F)c1sc2ccccc2c1Br (racemic)"
assayed_system = "canine TRPM8 (Canis lupus familiaris, UniProt Q1A7N1)"
property_name = "% I (0.5 μM)"
result = "101%"

[[record]]
molecule = "CCOP(=O)(OCC)C(Cc1ccc(OC)c(C(F)(F)F)c1)c1sc2ccccc2c1Cl (racemic)"
assayed_system = "canine TRPM8 (Canis lupus familiaris, UniProt Q1A7N1)"
property_name = "% I (0.5 μM)"
result = "99%"

[[record]]
molecule = "CCOP(=O)(OCC)C(Cc1ccccc1OC)c1sc2ccccc2c1Br (stereo not drawn)"
assayed_system = "canine TRPM8 (Canis lupus familiaris, UniProt Q1A7N1)"
property_name = "% I (0.5 μM)"
result = "103%"

[[record]]
molecule = "CCOP(=O)(OCC)C(Cc1ccc(C(F)(F)F)c(F)c1)c1sc2ccccc2c1Cl (stereo not drawn)"
assayed_system = "canine TRPM8 (Canis lupus familiaris, UniProt Q1A7N1)"
property_name = "% I (0.5 μM)"
result = "103%"

[[record]]
molecule = "CCOP(=O)(OCC)C(Cc1ccccc1C(F)(F)F)c1sc2ccccc2c1Cl (racemic)"
assayed_system = "canine TRPM8 (Canis lupus familiaris, UniProt Q1A7N1)"
property_name = "% I (0.5 μM)"
result = "97%"

[[record]]
molecule = "CC(C)OP(=O)(OC(C)C)C(Cc1cc(C(F)(F)F)ccc1F)c1sc2ccccc2c1Br (stereo not drawn)"
assayed_system = "canine TRPM8 (Canis lupus familiaris, UniProt Q1A7N1)"
property_name = "% I (0.5 μM)"
result = "102%"

[[record]]
molecule = "CCOP(=O)(OCC)C(Cc1ccc(F)c(Cl)c1)c1sc2ccccc2c1Cl (racemic)"
assayed_system = "canine TRPM8 (Canis lupus familiaris, UniProt Q1A7N1)"
property_name = "% I (0.5 μM)"
result = "103%"

[[record]]
molecule = "CCCS(=O)(=O)n1c(C(Cc2ccc(F)c(C(F)(F)F)c2)P(=O)(OC(C)C)OC(C)C)c(Br)c2ccccc21 (stereo not drawn)"
assayed_system = "canine TRPM8 (Canis lupus familiaris, UniProt Q1A7N1)"
property_name = "% I (0.5 μM)"
result = "72%"

[[record]]
molecule = "CC(C)CCOP(=O)(OCCC(C)C)C(Cc1ccc(F)c(F)c1)c1sc2ccccc2c1Br (racemic)"
assayed_system = "canine TRPM8 (Canis lupus familiaris, UniProt Q1A7N1)"
property_name = "% I (0.5 μM)"
result = "97%"

[[record]]
molecule = "CC(C)OP(=O)(OC(C)C)C(Cc1ccc(OC(F)(F)F)cc1)c1sc2ccccc2c1Cl (stereo not drawn)"
assayed_system = "canine TRPM8 (Canis lupus familiaris, UniProt Q1A7N1)"
property_name = "% I (0.5 μM)"
result = "103%"


Hey, just so you know, these numbers are from patent US20080287398A1.
